# reported TGI; entries follow
- System: T-47D breast
- Experiment summary: NCI tumour cell line growth inhibition, 48 h
Numbers only; they are read as µM.

Would you please look over these solved cases?
> print(dat)
                               smiles.input  scale.unit  recorded.value
1  Cc1ccc(-c2cc(-c3cc4ccccc4nc3Cl)[nH]c(=O)n2)cc1          µM            77.3
2  O=C1NC(=NC23CC4CC(CC(C4)C2)C3)N/C1=C\c1ccc2ncccc2n1          µM            5.38

Below: the item to evaluate.
input: Fill in the blank: the reported TGI of C[C@@H](Nc1c(C#N)cnc2ccc(-c3cnc4[nH]ncc4c3)cc12)c1ccccc1 is ____.
output: 8.36

---

- Test system: NCI-H460 lung
- Experiment summary: NCI tumour cell line growth inhibition, 48 h
# reported TGI; entries follow

> print(dat)
                               smiles.input  tested.system  recorded.value
1  N#Cc1c(NC(=O)c2ccc(C(F)(F)F)cc2C(F)(F)F)sc2c1CCC(=O)C2  NCI-H460 lung         10.9 µM

input: Fill in the blank: the reported TGI of C[C@@H](Nc1c(C#N)cnc2ccc(-c3cnc4[nH]ncc4c3)cc12)c1ccccc1 is ____.
output: 13.2 µM

input: Follow-up entry: CC(=O)Nc1cccc(Nc2nccc(N[C@@H](C)c3ccccc3)n2)c1
output: > 10 µM

input: Follow-up entry: O=C1NC(=NC23CC4CC(CC(C4)C2)C3)N/C1=C\c1ccc2ncccc2n1
output: 5.28 µM

---

- Test system: MDA-MB-468 breast
- Experiment summary: NCI tumour cell line growth inhibition, 48 h
Label y for high-side TGI (at or above 6 µM) and n for low-side TGI (below it).

input: Could you tell me if the measured TGI of CN(c1ccc(NC(=O)Nc2c(Cl)cccc2Cl)cc1)c1ccnc(Nc2cccc(CS(C)(=O)=O)c2)n1 reaches 6 µM or more?
output: y

input: Follow-up entry: COc1ccc2c(c1)NC1=C(C(=O)OC1)C2c1cc(OC)c(OC)c(OC)c1 (configuration not stated)
output: n

input: Follow-up entry: CS(=O)(=O)CCNCc1coc(-c2ccc3ncnc(Nc4ccc(OCc5ccccc5)cc4)c3c2)c1
output: n

input: Follow-up entry: NC(CSC(c1ccccc1)(c1ccccc1)c1ccccc1)C(=O)NCC(=O)O (configuration not stated)
output: y

input: Follow-up entry: C=C1c2c(C)nn(-c3ccc(C#CCOC4OC(CO)C(O)C(O)C4O)cc3)c2N(C)C23C[C@H]1C1(C)c4c(C)nn(-c5ccc(C#CCOC6OC(CO)C(O)C(O)C6O)cc5)c4N(C)C(C)(C[C@H]12)C3 (some centres not stated)
output: n

input: Follow-up entry: Cc1cn(-c2cc(NC(=O)c3cccc(C#Cc4cccc5[nH]nc(N)c45)c3)cc(C(F)(F)F)c2)cn1
output: y

input: Follow-up entry: O=c1[nH]c2ccccc2cc1-c1nc2ccc(Cl)cc2[nH]1
output: y

input: Follow-up entry: O=C1C=CC(=O)C2C1C1(Cl)C(Cl)=C(Cl)C2(Cl)C1(Cl)Cl (configuration not stated)
output: y

input: Follow-up entry: COc1cc(C2c3cc4c(cc3OC(C)(N3CCCC3)C2C)OCO4)cc(OC)c1OC (configuration not stated)
output: y

input: Follow-up entry: O=C(Oc1ccc[nH]c1=O)c1cc([N+](=O)[O-])cc([N+](=O)[O-])c1
output: y

input: Follow-up entry: COc1cc(Nc2ncccc2C(=O)Nc2nc3ccc(F)cc3s2)cc(OC)c1OC
output: y

input: Follow-up entry: CN(C)C/C=C/C(=O)Nc1ccc(C(=O)N[C@@]2(C)CCC[C@@H](Nc3ncc(Cl)c(-c4c[nH]c5ccccc45)n3)C2)nc1
output: n

---

- System: MDA-MB-468 breast
- Experiment summary: NCI tumour cell line growth inhibition, 48 h; in the data active = GI50 below about 0.43 µM; inactive = the rest
Hello, when you answer, please use one of the following outcomes: active, inactive

Solved entries:
> print(dat)
                               smiles.input      tested.system  assigned.category
1  Cc1nnc(-c2ccc(C)c(-c3ccc(C(=O)Nc4cccc(C#N)c4)cc3)c2)o1  MDA-MB-468 breast           inactive
2  CCCOC(=O)N[C@H]1CCc2c(Cl)c(OC)c(OC)c(OC)c2-c2ccc(SC)c(=O)cc21  MDA-MB-468 breast             active
3  O=C(O)c1ccc(CN2CCC(CN[C@@H]3C[C@H]3c3ccccc3)CC2)cc1  MDA-MB-468 breast           inactive

input: Would you mind telling me which call this test gave C=CC(=O)N1CCC(Oc2cc3c(Nc4ccc(Cl)c(Cl)c4F)ncnc3cc2OC)CC1 ?
output: active

input: Follow-up entry: CCOc1cc(C(C)(C)C)ccc1C1=N[C@H](c2ccc(Cl)cc2)[C@H](c2ccc(Cl)cc2)N1C(=O)N1CCN(CC#Cc2cccc3c2CN([C@@H]2CCC(=O)NC2=O)C3=O)CC1
output: active

input: Follow-up entry: O=c1[nH]c2ccccc2cc1-c1nc2ccc(Cl)cc2[nH]1
output: inactive

input: Follow-up entry: CC1(C)N=C(N)N=C(N)N1c1ccc(CCC(=O)Nc2ccc(S(=O)(=O)F)cc2)c(Cl)c1
output: inactive
